Values compiled from patent US12544419B2.

- Tested on: LNCaP cells
- TEST_METHOD_NOTES: Cell viability assay (BrdU incorporation), LNCaP
- Assay type: cell-based
- STUDY_CONDITIONS: conjugated to anti-PSMA antibody h3/F11 D265C

{"COMPOUND": "CC[C@H](C)[C@@H]1NC(=O)CNC(=O)[C@@H]2Cc3c([nH]c4cc(OCc5ccc(NC(=O)[C@H](C)NC(=O)[C@@H](NC(=O)CCN6C(=O)C=CC6=O)C(C)C)cc5)ccc34)SCC(NC(=O)CNC1=O)C(=O)N[C@@H](CC(N)=O)C(=O)CN1CC(O)C[C@H]1C(=O)N[C@@H]([C@@H](C)[C@@H](O)CO)C(=O)N2 (stereo partly drawn)", "potency in cell viability assay (FIG. 3)": "comparable potency"}
{"COMPOUND": "CC[C@H](C)[C@@H]1NC(=O)CNC(=O)[C@@H]2Cc3c([nH]c4cc(OCc5ccc(NC(=O)[C@H](C)NC(=O)[C@@H](NC(=O)CCN6C(=O)C=CC6=O)C(C)C)cc5)ccc34)[S@+]([O-])CC(NC(=O)CNC1=O)C(=O)N[C@@H](CC(N)=O)C(=O)CN1CC(O)C[C@H]1C(=O)N[C@@H]([C@@H](C)[C@@H](O)CO)C(=O)N2 (stereo partly drawn)", "potency in cell viability assay (FIG. 3)": "comparable potency"}

###

- System: Raji Burkitt's lymphoma cells (s.c. xenograft)
- TEST_METHOD_NOTES: Raji s.c. xenograft model (solid tumor), tumor volume
- Assay type: in vivo, CB17 SCID mice
- STUDY_CONDITIONS: anti-CD19 conjugate; grade, key not given
EXPERIMENTAL_READOUT: Efficacy Raji sc

{"MOLECULE": "CC[C@H](C)[C@@H]1NC(=O)CNC(=O)[C@@H]2Cc3c([nH]c4cc(O)ccc34)SCC(NC(=O)CNC1=O)C(=O)N[C@@H](CC(=O)NCc1ccc(NC(=O)[C@H](C)NC(=O)C(NC(=O)CCN3C(=O)C=CC3=O)C(C)C)cc1)C(=O)CN1CC(O)C[C@H]1C(=O)N[C@@H]([C@@H](C)[C@@H](O)CO)C(=O)N2 (stereo partly drawn)", "EXPERIMENTAL_READOUT": "Efficacy Raji sc", "OBSERVED_MEASUREMENT": "∘"}
{"MOLECULE": "CC[C@H](C)[C@@H]1NC(=O)CNC(=O)[C@@H]2Cc3c([nH]c4cc(OCc5ccc(NC(=O)[C@H](C)NC(=O)[C@@H](NC(=O)CCN6C(=O)C=CC6=O)C(C)C)cc5)ccc34)SCC(NC(=O)CNC1=O)C(=O)N[C@@H](CC(N)=O)C(=O)CN1CC(O)C[C@H]1C(=O)N[C@@H]([C@@H](C)[C@@H](O)CO)C(=O)N2 (stereo partly drawn)", "EXPERIMENTAL_READOUT": "Efficacy Raji sc", "OBSERVED_MEASUREMENT": "∘"}
{"MOLECULE": "CC[C@H](C)[C@@H]1NC(=O)CNC(=O)[C@@H]2Cc3c([nH]c4cc(OCc5ccc(NC(=O)[C@H](C)NC(=O)[C@@H](NC(=O)CCN6C(=O)C=CC6=O)C(C)C)cc5)ccc34)[S@+]([O-])CC(NC(=O)CNC1=O)C(=O)N[C@@H](CC(N)=O)C(=O)CN1CC(O)C[C@H]1C(=O)N[C@@H]([C@@H](C)[C@@H](O)CO)C(=O)N2 (stereo partly drawn)", "EXPERIMENTAL_READOUT": "Efficacy Raji sc", "OBSERVED_MEASUREMENT": "∘"}

###

- Test system: LNCaP cells
- TEST_METHOD_NOTES: Cell viability assay (BrdU incorporation), LNCaP
- Format: cell-based
- STUDY_CONDITIONS: conjugated to anti-PSMA antibody h3/F11 D265C

{"COMPOUND": "CC[C@H](C)[C@@H]1NC(=O)CNC(=O)[C@@H]2Cc3c([nH]c4cc(O)ccc34)SCC(NC(=O)CNC1=O)C(=O)N[C@@H](CC(=O)NCc1ccc(NC(=O)[C@H](C)NC(=O)C(NC(=O)CCN3C(=O)C=CC3=O)C(C)C)cc1)C(=O)CN1CC(O)C[C@H]1C(=O)N[C@@H]([C@@H](C)[C@@H](O)CO)C(=O)N2 (stereo partly drawn)", "potency in cell viability assay (FIG. 3)": "comparable potency"}
{"COMPOUND": "CC[C@H](C)[C@@H]1NC(=O)CNC(=O)[C@@H]2Cc3c([nH]c4cc(O)ccc34)[S@+]([O-])CC(NC(=O)CNC1=O)C(=O)N[C@@H](CC(=O)NCc1ccc(NC(=O)[C@H](C)NC(=O)C(NC(=O)CCN3C(=O)C=CC3=O)C(C)C)cc1)C(=O)CN1CC(O)C[C@H]1C(=O)N[C@@H]([C@@H](C)[C@@H](O)CO)C(=O)N2 (stereo partly drawn)", "potency in cell viability assay (FIG. 3)": "comparable potency"}

###

- TEST_METHOD_NOTES: Highest non-severely toxic dose, DIG (Digoxigenin antibody) conjugates, Cyno
- STUDY_CONDITIONS: Digoxigenin antibody conjugate (no cross reaction with host targets); Cynomolgus monkey
EXPERIMENTAL_READOUT: HNSTD DIG Cyno

{"MOLECULE": "CC[C@H](C)[C@@H]1NC(=O)CNC(=O)[C@@H]2Cc3c([nH]c4ccccc34)SCC(NC(=O)CNC1=O)C(=O)N[C@@H](CC(=O)NCc1ccc(NC(=O)[C@H](C)NC(=O)C(NC(=O)CCN3C(=O)C=CC3=O)C(C)C)cc1)C(=O)CN1CC(O)C[C@H]1C(=O)N[C@@H]([C@@H](C)[C@@H](O)CO)C(=O)N2 (some centres unmarked) [30.2115, reference compound]", "OBSERVED_MEASUREMENT": "<7.5 mg/kg"}
{"MOLECULE": "CC[C@H](C)[C@@H]1NC(=O)CNC(=O)[C@@H]2Cc3c([nH]c4cc(OCc5ccc(NC(=O)[C@H](C)NC(=O)[C@@H](NC(=O)CCN6C(=O)C=CC6=O)C(C)C)cc5)ccc34)SCC(NC(=O)CNC1=O)C(=O)N[C@@H](CC(N)=O)C(=O)CN1CC(O)C[C@H]1C(=O)N[C@@H]([C@@H](C)[C@@H](O)CO)C(=O)N2 (some centres unmarked)", "OBSERVED_MEASUREMENT": ">2 mg/kg"}
{"MOLECULE": "CC[C@H](C)[C@@H]1NC(=O)CNC(=O)[C@@H]2Cc3c([nH]c4cc(OCc5ccc(NC(=O)[C@H](C)NC(=O)[C@@H](NC(=O)CCN6C(=O)C=CC6=O)C(C)C)cc5)ccc34)[S@+]([O-])CC(NC(=O)CNC1=O)C(=O)N[C@@H](CC(N)=O)C(=O)CN1CC(O)C[C@H]1C(=O)N[C@@H]([C@@H](C)[C@@H](O)CO)C(=O)N2 (some centres unmarked)", "OBSERVED_MEASUREMENT": ">3 mg/kg"}
{"MOLECULE": "CC[C@H](C)[C@@H]1NC(=O)CNC(=O)[C@@H]2Cc3c([nH]c4cc(O)ccc34)[S@+]([O-])CC(NC(=O)CNC1=O)C(=O)N[C@@H](CC(=O)NCc1ccc(NC(=O)[C@H](C)NC(=O)C(NC(=O)CCN3C(=O)C=CC3=O)C(C)C)cc1)C(=O)CN1CC(O)C[C@H]1C(=O)N[C@@H]([C@@H](C)[C@@H](O)CO)C(=O)N2 (some centres unmarked)", "OBSERVED_MEASUREMENT": "<7.5 mg/kg"}
{"MOLECULE": "CC[C@H](C)[C@@H]1NC(=O)CNC(=O)[C@@H]2Cc3c([nH]c4cc(O)ccc34)SCC(NC(=O)CNC1=O)C(=O)N[C@@H](CC(=O)NCc1ccc(NC(=O)[C@H](C)NC(=O)C(NC(=O)CCN3C(=O)C=CC3=O)C(C)C)cc1)C(=O)CN1CC(O)C[C@H]1C(=O)N[C@@H]([C@@H](C)[C@@H](O)CO)C(=O)N2 (some centres unmarked)", "OBSERVED_MEASUREMENT": "<5 mg/kg"}
